A collection of binders and their measured MFI Fold change (THP-1 WT over THP-1 TREM2 KO)
Biological target: T1, human TREM2 (human, UniProt Q9NZC2 19-230)
T1 construct: on THP-1 WT cells and M2a-like macrophages (endogenous) and on CHO or HEK293T cells overexpressing human TREM2 with DAP12; also called hTREM2
T1 sequence: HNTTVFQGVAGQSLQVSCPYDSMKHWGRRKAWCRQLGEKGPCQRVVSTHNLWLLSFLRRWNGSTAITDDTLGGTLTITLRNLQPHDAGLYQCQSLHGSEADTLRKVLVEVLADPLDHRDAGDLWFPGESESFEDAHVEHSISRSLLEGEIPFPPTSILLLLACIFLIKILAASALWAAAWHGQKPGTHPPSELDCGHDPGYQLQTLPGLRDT
Assay: flow cytometry, THP-1 WT vs THP-1 TREM2 KO cells, 10 ug/ml
Protocol: In order to test specificity of selected antibodies to TREM2, binding was tested by flow cytometry on THP-1 TREM2 KO (clone, produced using CRISPR technology in house) and on THP-1 WT. Cells were incubated with selected anti-TREM2 antibodies (final concentration of 10 μg/ml) for 30 min at 4° C. After washing, bound antibodies were detected with a secondary anti-human IgG Fc PE-labelled for 30 min at 4° C. Fluorescence intensity was measured by flow cytometry.
Just the number please, in fold, no unit attached.

>>> obs_value("EOS006181 (antibody, V domains shown) VH: EVQLVESGGGLVQPGRSLRLSCTASGFTFDDHAMSWFRQAPGKGLEWVGFIGSKAYGGTTEYTASVKGRFTISRDGSKSIAYLQMNSLKTEDTAVYYCARGKRYSYTYWTPAFDVWGQGTMVTVSS VL: DIQMTQSPSSLSASVGDRVTITCQASQDITNYLNWYQQKPGKAPKLLIYDASNLETGVPSRFSGSGSGTDFTFTISSLQPEDIATYYCQQYDSYLTFGGGTKVEIK")
4.8

For the next question, use this binder.
Item: EOS006175 (antibody, V domains shown) VH: QVQLQESGPGLVKPSGTLSLTCAVSGGSISSSNWWSWVRQPPGKGLEWIGEIYHSGSTNYNPSLKSRVTISVDKSKNQFSLKLSSVTAADTAVYYCARDTKYWGGMDVWGQGTTVTVSS VL: DIQMTQSPSSLSASVGDRVTITCQASQDISNYLNWYQQKPGKAPKLLIYDASNLATGVPSRFSGSGSGTDFTFTISSLQPEDIATYYCQQYVEAPTFGGGTKVEIK | MFI Fold change (THP-1 WT over THP-1 TREM2 KO): 5.8
